// reported Tg_72h_%Growth_Rep2 per item
Tested on: T. gondii RH strain (RH-Tub-eYFP) tachyzoites
Experiment: microbe, parasite or virus in culture
Type: cell-based, Toxoplasma gondii
Conditions: library screen at 2 μg/mL, 72 h, % growth, replicate 2
Your answer should be a plain number; it is taken to be in %.

- compound: "Cc1c2c(c(O)c3c(O)cccc13)C(=O)O[C@@H]2[C@H]1[C@H](N(C)C)C(O)=C(C(N)=O)C(=O)[C@@H]1O"
  test system: "T. gondii RH strain (RH-Tub-eYFP) tachyzoites"
  measurement units: "%"
  Tg_72h_%Growth_Rep2: 102.07
- compound: "CCC/C=C/C=C/C1C[C@@H](O)[C@@H](O)C(=O)[C@H]1C=O (stereo partly shown)"
  test system: "T. gondii RH strain (RH-Tub-eYFP) tachyzoites"
  measurement units: "%"
  Tg_72h_%Growth_Rep2: 96.89
- compound: "CC1(O)Cc2oc3cc(O)c(O)c(C(=O)O)c3c(=O)c2CO1 (stereo not shown)"
  test system: "T. gondii RH strain (RH-Tub-eYFP) tachyzoites"
  measurement units: "%"
  Tg_72h_%Growth_Rep2: 113.67
- compound: "CC(C)=C[C@H]1C[C@H](C)[C@]2(CC[C@]3(C)C[C@@H]4C(C)=CC(=O)[C@@H]4/C(C=O)=C\\C[C@H]32)O1 [Anhydroophiobolin A]"
  test system: "T. gondii RH strain (RH-Tub-eYFP) tachyzoites"
  measurement units: "%"
  Tg_72h_%Growth_Rep2: 91.26
- compound: "COc1ccc(C[C@H]2NC[C@H](O)[C@H]2OC(C)=O)cc1"
  test system: "T. gondii RH strain (RH-Tub-eYFP) tachyzoites"
  measurement units: "%"
  Tg_72h_%Growth_Rep2: 1.73
- compound: "CC(C)=C[C@H]1C[C@H](C)[C@]2(CC[C@]3(C)C[C@@H]4C(C)=CC(=O)[C@H]4/C(C=O)=C\\C[C@H]32)O1 [Anhydroepiophiobolin A]"
  test system: "T. gondii RH strain (RH-Tub-eYFP) tachyzoites"
  measurement units: "%"
  Tg_72h_%Growth_Rep2: 104.77

// switching to the query compound
*Q* # lookup: Tg_72h_%Growth_Rep2 of O=C1NC(c2c[nH]c3ccccc23)=C/C1=C1\C(=O)Nc2ccccc21
*A* 26.55

---

Tested on: T. gondii RH strain (RH-Tub-eYFP) tachyzoites
Assay: microbe, parasite or virus in culture
Format: cell-based, Toxoplasma gondii
Conditions: Toxoplasma gondii, 72 h, T. gondii, 72 h, screen at 2 μg/mL, replicate 1; read-out: Tg_72h_%Growth_Rep1
reported property: percent parasite growth at 2 µg/mL (%)
Your answer should be a plain number; it is taken to be in %.

Reference set (4 entries):
- smiles record: "CO[C@H]1[C@@H](O)[C@@H](C)O[C@H](O[C@H]2[C@H](Oc3cccc4c(O)c5c(=O)oc6ccc(C)c7c(=O)oc(c34)c5c67)O[C@H](C)[C@H](O)[C@@H]2O)[C@@H]1O"
  test system: "T. gondii RH strain (RH-Tub-eYFP) tachyzoites"
  recorded result: 85.7
- smiles record: "CO[C@H]1C[C@@H]2CC[C@@H](C)[C@@](O)(O2)C(=O)C(=O)N2CCCC[C@H]2C(=O)O[C@H]([C@H](C)C[C@@H]2CC[C@@H](OC(=O)C(C)(CO)CO)[C@H](OC)C2)CC(=O)[C@H](C)/C=C(\\C)[C@@H](O)[C@@H](OC)C(=O)[C@H](C)C[C@H](C)/C=C/C=C/C=C/1C"
  test system: "T. gondii RH strain (RH-Tub-eYFP) tachyzoites"
  recorded result: 97
- smiles record: "CN(C)c1cc(NC(=O)CNC(C)(C)C)c(O)c2c1C[C@H]1C[C@H]3[C@H](N(C)C)C(O)=C(C(N)=O)C(=O)[C@@]3(O)C(O)=C1C2=O"
  test system: "T. gondii RH strain (RH-Tub-eYFP) tachyzoites"
  recorded result: 144
- smiles record: "CO[C@H]1C[C@@H]2CC[C@@H](C)[C@@](O)(O2)C(=O)C(=O)N2CCCC[C@H]2C(=O)O[C@H]([C@H](C)C[C@@H]2CC[C@H](n3cnnn3)[C@H](OC)C2)CC(=O)[C@H](C)/C=C(\\C)[C@@H](O)[C@@H](OC)C(=O)[C@H](C)C[C@H](C)/C=C/C=C/C=C/1C"
  test system: "T. gondii RH strain (RH-Tub-eYFP) tachyzoites"
  recorded result: 120

*Q* # lookup: percent parasite growth at 2 µg/mL of O=C(O)/C=C/c1c[nH]cn1
*A* 81

---

System: T. gondii RH strain (RH-Tub-eYFP) tachyzoites
Assay: microbe, parasite or virus in culture
Assay type: cell-based, Toxoplasma gondii
Details: T. gondii, 72 h, parasite screen at 2 μg/mL, % growth, replicate 1
Where a SMILES comes first, the peptide text is derived from it. Bridges are numbered along the chain shown (N, C = ends). The star is where a group is joined. X2 = CCCCCCCCCCCC(O)CC(=O)*
// reported Tg_72h_%Growth_Rep1 per item
Your answer should be a plain number; it is taken to be in %.

- molecule: "C[C@@H]1Cc2c(Cl)cc(C(=O)N[C@@H](Cc3ccccc3)C(=O)O)c(O)c2C(=O)O1"
  reported property: "Tg_72h_%Growth_Rep1"
  recorded result: 120.41

*Q* # lookup: Tg_72h_%Growth_Rep1 of CCC1(C2OC(C3OC(O)(CO)C(C)CC3C)CC2C)CCC(C2(C)CCC3(CC(O)C(C)C(C(C)C(OC)C(C)C(=O)O)O3)O2)O1 (centres unmarked)
*A* 1.84

*Q* # lookup: Tg_72h_%Growth_Rep1 of C[C@H]1C(=O)O[C@@H]2CCN3CC=C(COC(=O)[C@](C)(O)[C@]1(C)O)[C@H]23
*A* 108.79

*Q* # lookup: Tg_72h_%Growth_Rep1 of COc1cc2nccc3c4ccccc4n(c1=O)c23
*A* 156.47

*Q* # lookup: Tg_72h_%Growth_Rep1 of CCCCCCCCCCCC(O)CC(=O)NC(CC(C)C)C(=O)NC(CCC(=O)O)C(=O)NC1C(=O)NC(C(C)CC)C(=O)NC(CC(C)C)C(=O)NC(CO)C(=O)NC(CC(C)C)C(=O)NC(CC(C)C)C(=O)NC(CO)C(=O)NC(C(C)C)C(=O)OC1C (centres unmarked) [BIA-O1430] (X2-LETILSLLSV; ester 3-C; configuration not given here)
*A* 121.77

*Q* # lookup: Tg_72h_%Growth_Rep1 of CC=CC(C)=CC(C)C(=O)CC(O)CC1CC(=O)NC(=O)C1 (centres unmarked)
*A* 4.29

*Q* # lookup: Tg_72h_%Growth_Rep1 of CCCC[C@H](O)[C@@H]1CC(OC)=CC(=O)O1
*A* 91.14

*Q* # lookup: Tg_72h_%Growth_Rep1 of Cc1ncc(-c2c[nH]c3ccccc23)o1
*A* 139.44

*Q* # lookup: Tg_72h_%Growth_Rep1 of COc1c(-c2ccccc2)c2ccccc2[nH]c1=O
*A* 136.04

---

System: T. gondii RH strain (RH-Tub-eYFP) tachyzoites
Experiment: microbe, parasite or virus in culture
Format: cell-based, Toxoplasma gondii
Conditions: library screen at 2 μg/mL, 72 h, % growth, replicate 2
// reported Tg_72h_%Growth_Rep2 per item
Your answer should be a plain number; it is taken to be in %.

Reference set (3 entries):
- smiles record: "CO[C@H]1\\C=C/C=C\\C=C/C[C@H](OC(=O)[C@@H](C)NC(=O)C2CCCCC2)[C@H](C)[C@@H](O)/C(C)=C\\CCc2cc(O)cc(c2O)NC(=O)C1"
  Tg_72h_%Growth_Rep2, %: 11.14
- smiles record: "CC[C@H](C)[C@H]1O[C@]2(C=C[C@@H]1C)C[C@@H]1C[C@@H](C/C=C(\\C)[C@@H](O)[C@@H](C)/C=C/C=C3\\CO[C@@H]4[C@H](O)C(C)=C[C@@H](C(=O)O1)[C@]34O)O2"
  Tg_72h_%Growth_Rep2, %: 97.71
- smiles record: "CO[C@H]1C[C@H](O[C@H]2[C@H](C)O[C@@H](O[C@@H]3/C(C)=C/C[C@@H]4C[C@@H](C[C@]5(C=C[C@H](C)[C@@H](C6CCCCC6)O5)O4)OC(=O)[C@@H]4C=C(C)[C@@H](O)[C@H]5OC/C(=C\\C=C\\[C@@H]3C)[C@]54O)C[C@@H]2OC)O[C@@H](C)[C@@H]1O"
  Tg_72h_%Growth_Rep2, %: 102.84

// switching to the query compound
*Q* # lookup: Tg_72h_%Growth_Rep2 of CCCC[C@@H](C)[C@@H](OC(=O)C[C@@H](CC(=O)O)C(=O)O)[C@H](C[C@@H](C)C[C@H](O)CCCC[C@@H](O)C[C@H](O)[C@H](C)N)OC(=O)C[C@@H](CC(=O)O)C(=O)O
*A* 98.34
